Task for the reader: assign each of the following compounds its reported pIC50.
target_under_test: RET G810S kinase (Homo sapiens, UniProt P07949, G810S)
Sequence (P07949 29-1114 G810S): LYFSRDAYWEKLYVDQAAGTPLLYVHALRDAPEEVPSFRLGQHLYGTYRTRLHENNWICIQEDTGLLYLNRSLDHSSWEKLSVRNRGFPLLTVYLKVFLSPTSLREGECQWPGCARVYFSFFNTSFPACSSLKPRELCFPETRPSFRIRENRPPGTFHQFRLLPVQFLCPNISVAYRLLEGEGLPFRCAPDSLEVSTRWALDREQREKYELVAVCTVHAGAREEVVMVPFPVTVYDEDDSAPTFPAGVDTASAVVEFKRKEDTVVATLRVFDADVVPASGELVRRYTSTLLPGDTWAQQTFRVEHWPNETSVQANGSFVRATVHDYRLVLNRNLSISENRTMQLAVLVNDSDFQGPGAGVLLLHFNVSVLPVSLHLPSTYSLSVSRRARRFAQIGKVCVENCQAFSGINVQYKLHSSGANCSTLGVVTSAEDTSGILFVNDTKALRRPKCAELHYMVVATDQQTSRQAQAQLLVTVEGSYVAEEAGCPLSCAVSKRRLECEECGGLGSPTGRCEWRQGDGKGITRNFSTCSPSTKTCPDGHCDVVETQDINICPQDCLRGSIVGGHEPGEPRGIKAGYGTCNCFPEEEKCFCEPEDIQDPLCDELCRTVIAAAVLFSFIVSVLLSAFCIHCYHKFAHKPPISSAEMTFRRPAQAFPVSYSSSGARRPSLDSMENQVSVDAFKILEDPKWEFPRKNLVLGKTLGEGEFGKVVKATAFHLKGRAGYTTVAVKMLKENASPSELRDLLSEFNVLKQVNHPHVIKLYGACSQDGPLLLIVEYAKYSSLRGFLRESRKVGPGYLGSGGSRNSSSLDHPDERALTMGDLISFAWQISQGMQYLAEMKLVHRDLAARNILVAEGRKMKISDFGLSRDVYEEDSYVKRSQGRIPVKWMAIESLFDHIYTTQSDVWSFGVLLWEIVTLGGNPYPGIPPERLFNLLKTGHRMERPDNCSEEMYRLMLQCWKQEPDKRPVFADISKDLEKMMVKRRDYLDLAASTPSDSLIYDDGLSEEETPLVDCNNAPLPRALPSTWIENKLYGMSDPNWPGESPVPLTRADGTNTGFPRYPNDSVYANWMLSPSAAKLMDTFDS
experiment_notes: HTRF method for testing the inhibitory activity against RET G810S
Type: biochemical
recorded_conditions: HTRF
Numbers only, as −log10 of the molar value.

COc1ccc(CN2C3CC2CN(c2ccc(-c4cc(NCC(F)F)cn5ncc(C#N)c45)cn2)C3)cn1 [Compound 50] : 8.87

Provide the reported pIC50 of each entry below, same order.
1. COc1ccc(CN2C3CC2CN(c2cnc(-c4cc(N5CCOCC5)cn5ncc(C#N)c45)cn2)C3)cn1 [Compound 66]
2. CCNc1cc(-c2cnc(N3CC4CC(C3)N4Cc3ccc(OC)nc3)cn2)c2c(C#N)cnn2c1 [Compound 29]
3. CCNc1cc(-c2ccc(N3CC4CC(C3)N4Cc3ccc(OC)nc3)nc2)c2c(C#N)cnn2c1 [Compound 62]

## Result
1. 7.57
2. 8.71
3. 9.10

----------
target_under_test: Wild-type RET kinase (Homo sapiens)
Sequence (P07949 29-1114): as the sequence (P07949 29-1114 G810S) above, with S782G counted along it
experiment_notes: HTRF method for testing the inhibitory activity of compounds against RET
Format: biochemical
recorded_conditions: HTRF; read-out: Wild-type RET kinase
readout_kind: pIC50
Numbers only, as −log10 of the molar value.

COc1ccc(CN2C3CC2CN(c2cnc(-c4cc(OCCN5CCC6(CCOCC6)CC5)cn5ncc(C#N)c45)cn2)C3)cn1 : 8.24
COc1ccc(CN2C3CC2CN(c2cnc(-c4cc(OCCN5CC6(CCCO6)C5)cn5ncc(C#N)c45)cn2)C3)cn1 : 8.69
COc1ccc(CN2C3CC2CN(c2ccc(-c4cc(NCC5CCN(C)CC5)cn5ncc(C#N)c45)cn2)C3)cn1 : 8.32
COc1ccc(CN2C3CC2CN(c2cnc(-c4cc(OCCN5CCC6(CC5)CC(=O)N6)cn5ncc(C#N)c45)cn2)C3)cn1 : 8.38
COc1ccc(CN2C3CC2CN(c2cnc(-c4cc(N5CCOCC5)cn5ncc(C#N)c45)cn2)C3)cn1 : 9.09
CCNc1cc(-c2ccc(N3CC4CC(C3)N4Cc3ccc(-n4cc(F)cn4)nc3)nc2)c2c(C#N)cnn2c1 : 8.69
COc1ccc(CN2C3CC2CN(c2cnc(-c4cc(NCc5ccccn5)cn5ncc(C#N)c45)cn2)C3)cn1 : 8.89
COc1ccc(CN2C3CC2CN(c2ccc(-c4cc(NCCO)cn5ncc(C#N)c45)cn2)C3)cn1 : 9.66
COc1ccc(CN2C3CC2CN(c2ccc(-c4cc(NCC5CCCCC5)cn5ncc(C#N)c45)cn2)C3)cn1 : 7.53
COc1ccc(CN2C3CC2CN(c2cnc(-c4cc(OCCN5CCC6(COC6)C5)cn5ncc(C#N)c45)cn2)C3)cn1 : 8.58

Give pIC50 for each of the items listed below.
1. COc1ccc(CN2C3CC2CN(c2ccc(-c4cc(N(C)CCN(C)C)cn5ncc(C#N)c45)cn2)C3)cn1
2. COc1ccc(CN2CCN(c3ccc(-c4cc(OCCN5CC6(COC6)C5)cn5ncc(C#N)c45)cn3)CC2)cn1

## Result
[8.96, 9.10]

----------
Assign GI50 to each entry below.
target_under_test: Ba/F3-KIF5B-RET cell (Homo sapiens)
Construct: fused on or other part: P33176 (Kinesin-1 heavy chain)
Sequence (P07949 whole entry, change not shown, the tested form may be a part): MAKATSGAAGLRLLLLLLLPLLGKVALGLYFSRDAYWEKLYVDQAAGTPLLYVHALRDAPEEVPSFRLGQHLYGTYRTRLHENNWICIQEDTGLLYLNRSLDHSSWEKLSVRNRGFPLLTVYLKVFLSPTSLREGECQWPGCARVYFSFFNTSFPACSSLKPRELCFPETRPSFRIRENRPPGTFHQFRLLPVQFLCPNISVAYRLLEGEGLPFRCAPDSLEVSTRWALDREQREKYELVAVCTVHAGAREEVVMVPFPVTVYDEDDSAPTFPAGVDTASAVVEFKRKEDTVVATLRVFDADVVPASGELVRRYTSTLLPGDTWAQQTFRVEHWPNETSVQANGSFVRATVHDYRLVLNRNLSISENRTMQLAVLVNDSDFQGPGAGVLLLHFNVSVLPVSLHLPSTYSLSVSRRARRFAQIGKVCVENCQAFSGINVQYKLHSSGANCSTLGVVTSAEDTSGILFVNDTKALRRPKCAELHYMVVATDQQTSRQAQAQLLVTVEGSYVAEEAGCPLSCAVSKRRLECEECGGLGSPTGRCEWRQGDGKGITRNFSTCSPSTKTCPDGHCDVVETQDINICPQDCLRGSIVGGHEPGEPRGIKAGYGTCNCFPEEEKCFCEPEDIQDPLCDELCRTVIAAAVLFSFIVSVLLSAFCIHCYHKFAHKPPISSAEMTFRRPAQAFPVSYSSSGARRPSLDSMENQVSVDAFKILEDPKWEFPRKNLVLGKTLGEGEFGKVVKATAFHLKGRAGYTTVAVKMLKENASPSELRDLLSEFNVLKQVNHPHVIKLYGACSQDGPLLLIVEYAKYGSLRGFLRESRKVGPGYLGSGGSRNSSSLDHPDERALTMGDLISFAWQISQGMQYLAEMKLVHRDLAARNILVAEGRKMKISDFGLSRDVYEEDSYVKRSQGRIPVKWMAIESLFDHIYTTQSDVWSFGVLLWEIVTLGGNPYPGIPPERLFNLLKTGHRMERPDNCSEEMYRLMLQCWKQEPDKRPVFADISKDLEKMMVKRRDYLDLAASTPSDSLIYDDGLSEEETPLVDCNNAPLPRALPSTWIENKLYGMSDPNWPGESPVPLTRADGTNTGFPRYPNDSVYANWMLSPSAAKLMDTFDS
experiment_notes: CellTiter-Glo luminescence assay, inhibitory activity against Ba/F3-KIF5B-RET cell
Type: cell-based
recorded_conditions: 72 h, read-out: Ba/F3-KIF5B-RET cell activity
Numbers only, in nM.

COc1ccc(CN2CCN(c3ccc(-c4cc(OCCN5CC6CC6C5)cn5ncc(C#N)c45)cn3)CC2)cn1 (stereo not shown) : 203

Take each entry in turn and give its GI50.
1. COc1ccc(CN2C3CC2CN(c2cnc(-c4cc(OCCN5CCC6(CCCCC6)CC5)cn5ncc(C#N)c45)cn2)C3)cn1
2. CNc1cc(-c2ccc(N3CC4CC(C3)N4Cc3ccc(OC)nc3)nc2)c2c(C#N)cnn2c1
3. COc1ccc(CN2C3CC2CN(c2cnc(-c4cc(OCCN5CCC6(CC5)COC6)cn5ncc(C#N)c45)cn2)C3)cn1

## Result
21.3
1.42
63.4
